# SYSTEM: rat collagen (acid soluble, type I, rat tail, Upstate 08-115) (rat) (UniProt P02454)
# Sequence (P02454 152-1207, chain 1 of 2): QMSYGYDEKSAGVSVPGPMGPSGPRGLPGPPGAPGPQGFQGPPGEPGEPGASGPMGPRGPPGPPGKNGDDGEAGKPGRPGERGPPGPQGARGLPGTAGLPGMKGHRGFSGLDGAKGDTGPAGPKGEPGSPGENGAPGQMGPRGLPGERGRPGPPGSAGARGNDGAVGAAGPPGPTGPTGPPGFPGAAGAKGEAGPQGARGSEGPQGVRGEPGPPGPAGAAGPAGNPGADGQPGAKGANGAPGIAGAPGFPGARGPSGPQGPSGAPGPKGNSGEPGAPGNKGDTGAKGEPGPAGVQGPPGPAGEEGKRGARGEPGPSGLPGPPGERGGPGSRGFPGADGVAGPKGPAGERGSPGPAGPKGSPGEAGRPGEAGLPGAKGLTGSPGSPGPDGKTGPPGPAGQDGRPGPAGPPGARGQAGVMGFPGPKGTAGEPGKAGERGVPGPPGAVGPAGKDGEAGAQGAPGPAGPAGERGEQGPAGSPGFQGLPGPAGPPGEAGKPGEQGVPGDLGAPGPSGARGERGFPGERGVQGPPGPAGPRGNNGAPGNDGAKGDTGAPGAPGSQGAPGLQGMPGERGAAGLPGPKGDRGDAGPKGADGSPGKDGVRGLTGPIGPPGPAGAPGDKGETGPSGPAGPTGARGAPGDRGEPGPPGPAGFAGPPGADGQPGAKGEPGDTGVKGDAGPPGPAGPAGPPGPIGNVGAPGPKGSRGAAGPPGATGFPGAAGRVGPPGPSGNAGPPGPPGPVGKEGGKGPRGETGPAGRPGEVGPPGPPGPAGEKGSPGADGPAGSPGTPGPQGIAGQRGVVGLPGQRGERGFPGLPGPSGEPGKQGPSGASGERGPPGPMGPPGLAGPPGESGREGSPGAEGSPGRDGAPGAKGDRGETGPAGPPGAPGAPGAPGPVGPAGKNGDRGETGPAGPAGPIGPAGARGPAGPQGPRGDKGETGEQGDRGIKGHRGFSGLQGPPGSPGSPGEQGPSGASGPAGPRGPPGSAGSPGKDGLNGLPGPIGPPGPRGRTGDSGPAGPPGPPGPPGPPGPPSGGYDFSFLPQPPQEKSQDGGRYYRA
# Sequence (P02466 86-1125, chain 2 of 2, further chain): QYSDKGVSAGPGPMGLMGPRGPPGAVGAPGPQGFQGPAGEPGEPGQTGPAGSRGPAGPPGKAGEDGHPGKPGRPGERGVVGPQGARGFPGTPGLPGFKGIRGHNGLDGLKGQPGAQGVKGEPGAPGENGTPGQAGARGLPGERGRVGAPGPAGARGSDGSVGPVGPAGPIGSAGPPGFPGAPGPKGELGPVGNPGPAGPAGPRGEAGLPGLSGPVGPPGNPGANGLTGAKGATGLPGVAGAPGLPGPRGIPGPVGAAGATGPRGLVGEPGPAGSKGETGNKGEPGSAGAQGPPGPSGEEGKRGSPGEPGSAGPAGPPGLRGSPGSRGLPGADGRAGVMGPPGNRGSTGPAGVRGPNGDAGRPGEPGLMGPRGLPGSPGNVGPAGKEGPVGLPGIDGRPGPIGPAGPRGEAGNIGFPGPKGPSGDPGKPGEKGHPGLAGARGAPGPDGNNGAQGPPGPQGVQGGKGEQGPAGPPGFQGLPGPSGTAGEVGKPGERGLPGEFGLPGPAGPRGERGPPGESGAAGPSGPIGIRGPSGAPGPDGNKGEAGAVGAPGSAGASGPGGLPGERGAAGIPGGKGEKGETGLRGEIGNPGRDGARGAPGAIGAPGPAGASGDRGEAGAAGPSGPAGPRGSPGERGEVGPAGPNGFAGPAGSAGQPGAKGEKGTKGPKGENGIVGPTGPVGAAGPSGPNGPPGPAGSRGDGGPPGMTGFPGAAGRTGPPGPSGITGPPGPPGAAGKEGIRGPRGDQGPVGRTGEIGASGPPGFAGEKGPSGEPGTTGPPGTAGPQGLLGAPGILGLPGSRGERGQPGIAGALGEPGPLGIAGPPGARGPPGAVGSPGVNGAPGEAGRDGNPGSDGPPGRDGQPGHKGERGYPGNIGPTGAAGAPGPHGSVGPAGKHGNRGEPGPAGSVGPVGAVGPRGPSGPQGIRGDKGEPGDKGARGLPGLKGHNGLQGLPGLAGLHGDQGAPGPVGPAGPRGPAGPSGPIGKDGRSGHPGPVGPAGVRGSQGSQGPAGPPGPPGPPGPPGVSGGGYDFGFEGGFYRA
# METHOD_DESCRIPTION: dried collagen assay, 5 uM each
Bridge positions count the residues as written; N and C are the ends. GdDTPA‑thiourea = GdT is GdDTPA-thiourea (Gd-DTPA chelate attached through a thiourea)
Here, each record is paired with measured Rat binding data.
State the answer as a number, implicitly in %.

Please report Rat binding for the following binder: GSWHCTTLFPHHYCLYG [Compound ID 911]
0

Please report Rat binding for the following binder: DWTCSADEYTWHCNYE [Compound ID 835]
9

Please report Rat binding for the following binder: GKWHCYTKFPYHYCVYY [Compound ID 1011]
93

Please report Rat binding for the following binder: GQWHCTTRFPHHYCFYG [Compound ID 931]
83

---
Please report Rat binding for the following binder: PPWHCTTLFPHHYCLYG [Compound ID 912]
0

Please report Rat binding for the following binder: GKWHCYTYFPHHYCVYYK [Compound ID 975]
64

Please report Rat binding for the following binder: {GdDTPA‑thiourea}-GQWHCTTRFPHHYCLYGK(GdDTPA‑thiourea)-NH2 (disulfide 5-14) [Compound ID 807]
45

# credit: patent US20080058636A1
